Source: ChEMBL document CHEMBL5291721

tested on: 3',5'-cyclic-AMP phosphodiesterase 4D (Homo sapiens, UniProt Q08499); further: assay procedure not described here
Sequence (Q08499 whole entry): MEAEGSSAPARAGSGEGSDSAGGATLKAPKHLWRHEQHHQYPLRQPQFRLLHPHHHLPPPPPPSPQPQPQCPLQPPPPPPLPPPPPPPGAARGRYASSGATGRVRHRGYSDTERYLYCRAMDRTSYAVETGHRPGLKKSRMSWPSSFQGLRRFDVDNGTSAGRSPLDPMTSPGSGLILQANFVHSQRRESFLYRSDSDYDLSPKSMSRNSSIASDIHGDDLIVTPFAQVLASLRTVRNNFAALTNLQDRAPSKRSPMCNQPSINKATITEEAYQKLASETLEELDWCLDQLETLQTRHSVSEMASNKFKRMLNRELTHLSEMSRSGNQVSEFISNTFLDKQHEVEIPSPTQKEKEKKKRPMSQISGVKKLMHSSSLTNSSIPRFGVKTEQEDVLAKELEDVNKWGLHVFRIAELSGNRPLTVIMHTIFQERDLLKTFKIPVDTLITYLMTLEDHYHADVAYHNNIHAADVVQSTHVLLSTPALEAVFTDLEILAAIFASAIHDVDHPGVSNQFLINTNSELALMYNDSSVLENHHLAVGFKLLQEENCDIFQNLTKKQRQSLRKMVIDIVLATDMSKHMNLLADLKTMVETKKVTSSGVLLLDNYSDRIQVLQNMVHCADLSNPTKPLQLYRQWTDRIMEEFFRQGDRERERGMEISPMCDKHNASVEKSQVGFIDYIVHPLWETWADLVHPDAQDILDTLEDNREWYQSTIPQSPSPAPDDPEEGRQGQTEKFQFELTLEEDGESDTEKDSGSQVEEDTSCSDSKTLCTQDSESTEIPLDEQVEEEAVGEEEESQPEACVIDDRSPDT
Assay type: functional
Kindly state AC50 for each of the entries shown.

Tested on 3',5'-cyclic-AMP phosphodiesterase 4D (Homo sapiens, UniProt Q08499), the item COc1cc2nc(N3CCN(C(=O)C4CCCO4)CC3)nc(N)c2cc1OC (stereo unspecified) showed AC50 equal to > 30 µM

Fill in: 3',5'-cyclic-AMP phosphodiesterase 4D (Homo sapiens, UniProt Q08499) AC50 for CCC(C)C(CC)C(N)=O (stereo unspecified) [VALNOCTAMIDE] = > 30 µM

Kindly note: 3',5'-cyclic-AMP phosphodiesterase 4D (Homo sapiens, UniProt Q08499), C=CCNc1nc(NCC=C)nc(N2CCN(C(c3ccc(F)cc3)c3ccc(F)cc3)CC2)n1 , AC50 value reported: > 30 µM

// assay 3',5'-cyclic-AMP phosphodiesterase 4D (Homo sapiens, UniProt Q08499), entry CC(C)c1nc(N(C)S(C)(=O)=O)nc(-c2ccc(F)cc2)c1/C=C/[C@@H](O)C[C@@H](O)CC(=O)O , AC50 value = 4.16 µM

Result for C#C[C@]1(OC(C)=O)CC[C@H]2[C@@H]3CCC4=C/C(=N/O)CC[C@@H]4[C@H]3CC[C@@]21CC [NORGESTIMATE] , tested on 3',5'-cyclic-AMP phosphodiesterase 4D (Homo sapiens, UniProt Q08499), AC50: 13 µM

// assay 3',5'-cyclic-AMP phosphodiesterase 4D (Homo sapiens, UniProt Q08499), entry Cn1cnc2c(F)c(Nc3ccc(Br)cc3Cl)c(C(=O)NOCCO)cc21 , AC50 value = > 30 µM

For the compound O=C(O)CCNC(=O)c1ccccc1 , the measured AC50 on 3',5'-cyclic-AMP phosphodiesterase 4D (Homo sapiens, UniProt Q08499) was > 30 µM

Note to self: AC50 of Clc1ccc(C(Cn2ccnc2)OCc2ccsc2Cl)c(Cl)c1 (stereo unspecified) with 3',5'-cyclic-AMP phosphodiesterase 4D (Homo sapiens, UniProt Q08499) was 8.7 µM

Given the compound CCN(CC)CCNC(=O)c1cc(S(C)(=O)=O)ccc1OC [TIAPRIDE] and test system 3',5'-cyclic-AMP phosphodiesterase 4D (Homo sapiens, UniProt Q08499), the measured AC50 is > 30 µM

Summary line: NC(=O)CN1CCCC1=O , 3',5'-cyclic-AMP phosphodiesterase 4D (Homo sapiens, UniProt Q08499), reported AC50 = > 30 µM

# lookup: CC[C@@H]([C@H](C)O)n1ncn(-c2ccc(N3CCN(c4ccc(OC[C@@H]5CO[C@@](Cn6cncn6)(c6ccc(F)cc6F)C5)cc4)CC3)cc2)c1=O on 3',5'-cyclic-AMP phosphodiesterase 4D (Homo sapiens, UniProt Q08499), AC50 = > 30 µM
